# maps each entry to its Inhibition of DDC activity
- target or system: human DDC (Homo sapiens)
- Construct: made in house
- assay overview: Assay of the inhibitory activity: spectrophotometric measurement of dopamine production by DDC
- Assay type: biochemical
- assay conditions: at a concentration in which solubility of the compound was maximum
measured parameter: Inhibition of DDC activity

>>> assay_value("Nc1c(S(=O)(=O)c2ccccc2)c2nc3ccccc3nc2n1/N=C/c1ccc(O)c(O)c1")
"~55%"
>>> assay_value("Oc1cccc(/C=N/n2c(S)nnc2-c2ccc(Cl)cc2Cl)c1O")
"≥ 70%"
>>> assay_value("O=S(=O)(c1ccc2nnn(O)c2c1)N1CCCCC1")
"≥ 70%"
>>> assay_value("O=C(O)c1cccc(NS(=O)(=O)c2ccc3nnn(O)c3c2)c1")
"≥ 70%"
>>> assay_value("O=C1C(=Cc2ccc(O)c(O)c2)C(=O)c2ccccc21")
"≥ 70%"

----------
- target or system: human DDC (Homo sapiens)
- Construct: made in house
- assay overview: Assay of the inhibitory activity: spectrophotometric measurement of dopamine production by DDC
- Assay type: biochemical
- assay conditions: type of inhibition from Lineweaver–Burk plots
measured parameter: Inhibition profile

>>> assay_value("Oc1ccc(C=Nn2c(S)nnc2-c2ccccc2)c(O)c1")
"mixed mode"
>>> assay_value("Oc1cccc(/C=N/n2c(S)nnc2-c2ccc(Cl)cc2)c1")
"competitive inhibitors"
>>> assay_value("Oc1c(Br)cc(Br)cc1/C=N/n1c(S)nnc1-c1ccc(Cl)cc1Cl")
"mixed mode"
>>> assay_value("Oc1ccc(/C=N/n2c(S)nnc2-c2ccc(F)cc2)cc1O")
"competitive inhibitors"

----------
- target or system: human DDC (Homo sapiens, UniProt P20711)
- Construct: made in house
- Sequence (P20711 1-480): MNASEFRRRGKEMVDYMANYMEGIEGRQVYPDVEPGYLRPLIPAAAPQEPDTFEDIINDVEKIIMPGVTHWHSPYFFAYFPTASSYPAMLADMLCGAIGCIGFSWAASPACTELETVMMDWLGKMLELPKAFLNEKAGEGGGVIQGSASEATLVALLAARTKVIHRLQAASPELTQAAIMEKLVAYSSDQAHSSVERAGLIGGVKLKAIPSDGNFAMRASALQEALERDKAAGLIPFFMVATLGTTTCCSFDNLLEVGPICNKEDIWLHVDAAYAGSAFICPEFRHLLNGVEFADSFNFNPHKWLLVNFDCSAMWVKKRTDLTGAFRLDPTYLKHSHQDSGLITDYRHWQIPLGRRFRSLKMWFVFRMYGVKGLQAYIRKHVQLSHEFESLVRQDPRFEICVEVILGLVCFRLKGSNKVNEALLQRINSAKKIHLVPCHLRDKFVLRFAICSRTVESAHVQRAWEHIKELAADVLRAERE
- assay overview: Assay of the inhibitory activity: spectrophotometric measurement of dopamine production by DDC
- Format: biochemical
- assay conditions: 50 nM enzyme, 0.1 mM L-Dopa, 10 µM PLP, pH 7.4, 25°C; 9 concentrations in duplicate; read-out: IC50
measured parameter: IC50 (µM)

>>> assay_value("Oc1ccc(/C=N/n2c(S)nnc2-c2ccccc2)cc1O [Compound 37]")
2.4
>>> assay_value("Cc1nnc(S)n1/N=C/c1ccc(O)c(O)c1 [Compound 39]")
27.5
>>> assay_value("O=C(O)c1cccc(NS(=O)(=O)c2ccc3nnn(O)c3c2)c1 [Compound 1]")
570
>>> assay_value("Oc1ccccc1/C=N/n1c(S)nnc1-c1ccccc1 [Compound 31]")
83
>>> assay_value("Oc1ccc(/C=N/n2c(S)nnc2-c2ccco2)cc1O [Compound 40]")
3.5

----------
- target or system: human DDC (Homo sapiens)
- Sequence (P20711 1-480): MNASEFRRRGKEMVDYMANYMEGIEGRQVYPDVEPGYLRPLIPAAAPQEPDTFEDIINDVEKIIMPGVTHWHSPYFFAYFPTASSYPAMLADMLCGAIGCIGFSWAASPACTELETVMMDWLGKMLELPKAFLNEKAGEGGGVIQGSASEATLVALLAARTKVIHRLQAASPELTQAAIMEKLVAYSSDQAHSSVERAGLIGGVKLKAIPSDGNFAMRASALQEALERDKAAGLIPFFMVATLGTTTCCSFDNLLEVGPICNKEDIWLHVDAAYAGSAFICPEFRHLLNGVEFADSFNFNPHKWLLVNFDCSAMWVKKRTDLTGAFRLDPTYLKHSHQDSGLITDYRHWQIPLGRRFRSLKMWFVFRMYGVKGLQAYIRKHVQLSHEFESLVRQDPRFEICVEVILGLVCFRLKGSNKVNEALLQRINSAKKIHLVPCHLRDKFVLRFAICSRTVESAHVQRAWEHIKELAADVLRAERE
So basically, if Kd comes in under 3 µM it's TRUE, and if it's 3 µM or more it's FALSE.

>>> class_assignment("Oc1cccc(/C=N/n2c(S)nnc2-c2ccc(Cl)cc2Cl)c1")
"FALSE"
>>> class_assignment("Cc1nnc(S)n1/N=C/c1ccc(O)c(O)c1")
"FALSE"
>>> class_assignment("Oc1ccc(/C=N/n2c(S)nnc2-c2ccccc2)cc1O")
"TRUE"
>>> class_assignment("Oc1ccc(/C=N/n2c(S)nnc2-c2ccc(Cl)cc2)cc1O")
"TRUE"
>>> class_assignment("O=C(Nc1ccccc1)c1ccccc1NS(=O)(=O)c1ccc2[nH]c(=O)[nH]c2c1")
"FALSE"
>>> class_assignment("Oc1ccc(/C=N/n2c(S)nnc2-c2ccc(Cl)cc2Cl)cc1O")
"FALSE"
>>> class_assignment("Oc1ccc(/C=N/n2c(S)nnc2-c2ccccc2Cl)cc1O")
"TRUE"
>>> class_assignment("Cc1ccc(-c2nnc(S)n2/N=C/c2ccc(O)c(O)c2)cc1")
"TRUE"
>>> class_assignment("Oc1ccccc1/C=N/n1c(S)nnc1-c1ccccc1")
"FALSE"

----------
- target or system: human DDC (Homo sapiens)
- Construct: made in house
- assay overview: Assay of the inhibitory activity: spectrophotometric measurement of dopamine production by DDC
- Type: biochemical
- assay conditions: Ki, competitive inhibition; Table 4, third screening
measured parameter: Ki

>>> assay_value("Oc1ccc(/C=N/n2cnnc2)cc1O")
"24.5 µM"
>>> assay_value("Oc1ccc(/C=N/n2c(S)nnc2-c2ccco2)cc1O")
"1.4 µM"
>>> assay_value("COc1cccc(-c2nnc(S)n2/N=C/c2ccc(O)c(O)c2)c1")
"2 µM"
>>> assay_value("COc1ccc(-c2nnc(S)n2/N=C/c2ccc(O)c(O)c2)cc1")
"0.5 µM"
>>> assay_value("Cc1ccc(-c2nnc(S)n2/N=C/c2ccc(O)c(O)c2)cc1")
"2 µM"
>>> assay_value("Cc1ccccc1-c1nnc(S)n1/N=C/c1ccc(O)c(O)c1")
"9.8 µM"
>>> assay_value("Cc1cccc(-c2nnc(S)n2/N=C/c2ccc(O)c(O)c2)c1")
"1.9 µM"

----------
- target or system: human DDC (Homo sapiens, UniProt P20711)
- Construct: made in house
- assay overview: Assay of the inhibitory activity: spectrophotometric measurement of dopamine production by DDC
- Assay type: biochemical
- assay conditions: 50 nM enzyme, L-Dopa, 10 µM PLP, 0.1 M potassium phosphate pH 7.4, 25°C; from Lineweaver–Burk plots; read-out: Ki
So basically, if Ki comes in under 10 µM it's label 1, and if it's 10 µM or more it's label 0.

>>> class_assignment("Oc1ccccc1/C=N/n1c(S)nnc1-c1ccccc1Cl")
"label 0"
>>> class_assignment("Oc1ccc(/C=N/n2c(S)nnc2-c2ccccc2Cl)cc1O")
"label 1"
>>> class_assignment("Oc1cccc(/C=N/n2c(S)nnc2-c2ccc(Cl)cc2Cl)c1")
"label 0"
>>> class_assignment("Oc1ccccc1/C=N/n1c(S)nnc1-c1ccccc1")
"label 0"
>>> class_assignment("O=C(Nc1ccccc1)c1ccccc1NS(=O)(=O)c1ccc2[nH]c(=O)[nH]c2c1")
"label 1"
>>> class_assignment("Oc1cccc(/C=N/n2c(S)nnc2-c2ccc(Cl)cc2Cl)c1O")
"label 0"
>>> class_assignment("Oc1cccc(/C=N/n2c(S)nnc2-c2ccccc2)c1O")
"label 1"
>>> class_assignment("Oc1ccc(/C=N/n2c(S)nnc2-c2ccccc2)cc1O")
"label 1"
>>> class_assignment("Oc1ccc(/C=N/n2c(S)nnc2-c2ccc(Cl)cc2)cc1O")
"label 1"
>>> class_assignment("Oc1cccc(/C=N/n2c(S)nnc2-c2ccccc2Cl)c1")
"label 0"
>>> class_assignment("Oc1ccc(/C=N/n2c(S)nnc2-c2ccc(Cl)cc2Cl)cc1O")
"label 0"
>>> class_assignment("Oc1ccc(/C=N/n2c(S)nnc2-c2ccc(F)cc2)cc1O")
"label 0"
>>> class_assignment("Oc1ccc(C=Nn2c(S)nnc2-c2ccccc2)c(O)c1")
"label 0"

----------
# maps each entry to its Ki
- target or system: human DDC (Homo sapiens, UniProt P20711)
- Construct: made in house
- Sequence (P20711 1-480): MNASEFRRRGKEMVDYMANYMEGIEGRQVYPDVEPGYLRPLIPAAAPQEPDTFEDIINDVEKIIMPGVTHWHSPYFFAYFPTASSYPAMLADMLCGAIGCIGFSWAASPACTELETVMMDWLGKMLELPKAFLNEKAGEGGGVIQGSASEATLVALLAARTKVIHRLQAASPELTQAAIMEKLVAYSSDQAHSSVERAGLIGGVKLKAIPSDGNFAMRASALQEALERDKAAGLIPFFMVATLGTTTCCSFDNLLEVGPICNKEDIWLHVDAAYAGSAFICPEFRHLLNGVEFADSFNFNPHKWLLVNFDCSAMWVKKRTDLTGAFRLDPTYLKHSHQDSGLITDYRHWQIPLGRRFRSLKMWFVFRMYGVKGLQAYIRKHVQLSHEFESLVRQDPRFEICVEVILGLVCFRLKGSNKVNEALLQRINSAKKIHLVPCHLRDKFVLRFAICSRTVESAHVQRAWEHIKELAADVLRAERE
- assay overview: Assay of the inhibitory activity: spectrophotometric measurement of dopamine production by DDC
- Assay type: biochemical
- assay conditions: 50 nM enzyme, L-Dopa, 10 µM PLP, 0.1 M potassium phosphate pH 7.4, 25°C; from Lineweaver–Burk plots; read-out: Ki
measured parameter: Ki (µM)

>>> assay_value("O=S(=O)(c1ccc2nnn(O)c2c1)N1CCCCC1 [Compound 2]")
390
>>> assay_value("O=C(O)c1cccc(NS(=O)(=O)c2ccc3nnn(O)c3c2)c1 [Compound 1]")
106
>>> assay_value("Oc1c(Br)cc(Br)cc1/C=N/n1c(S)nnc1-c1ccc(Cl)cc1Cl [Compound 32]")
4.5
>>> assay_value("O=C1C(=Cc2ccc(O)c(O)c2)C(=O)c2ccccc21 [Compound 10]")
6.03
>>> assay_value("Oc1ccc(/C=N/n2c(S)nnc2-c2ccc(Cl)cc2Cl)cc1 [Compound 18]")
63.2
>>> assay_value("O=C(O)c1ccccc1NS(=O)(=O)c1ccc2[nH]c(=O)[nH]c2c1 [Compound 16]")
59.8
>>> assay_value("Oc1ccccc1/C=N/n1c(S)nnc1-c1ccc(F)cc1 [Compound 33]")
16.5
>>> assay_value("Oc1cccc(/C=N/n2c(S)nnc2-c2ccc(Cl)cc2)c1 [Compound 24]")
120
>>> assay_value("Oc1ccc(/C=N/n2c(S)nnc2-c2ccccc2)c(O)c1O [Compound 22]")
15.1
